# Tested on: U2OS
# assay method text: Multiplex assay against U2OS
# Assay type: toxicity, cell-based
# cond: human, 48 h, 1 µM, compound concentration 1 uM, replicate 2
endpoint label: Population Normal (%)
Your answer is read as %, so omit the unit and give the number.

What reported Population Normal (%) corresponds to `CCOc1cc(C(=O)N2CCC(N3CCN(C)CC3)CC2)ccc1Nc1ncc2c(n1)N(C1CCCC1)c1ccccc1C(=O)N2C` on U2OS?
94

Lookup `CCCS(=O)(=O)c1nc(NC2CC2)cc(-c2ccc3c(ccn3C3CC(C)(C)NC(C)(C)C3)c2)n1`
91

Same read-out for `COc1cc(N2CCN(C)CC2)ccc1Nc1ncc2c(n1)N(C)c1ccccc1C(=O)N2C` ?
96

Here is the next compound: CN1CCC(=C2c3ccccc3CC(=O)c3sccc32)CC1.O=C(O)/C=C/C(=O)O [KETOTIFEN FUMARATE]
97

One more compound: CCOC(=O)c1c(C)[nH]c2ccc3c(c12)CN1CCc2cc(OC)ccc2C1O3 (centres undefined)
92

`CCc1cccc(CC)c1NC(=O)c1nn(C)c2c1CCc1cnc(Nc3ccc(C(=O)NC4CCN(C)CC4)cc3OC(F)(F)F)nc1-2` , same question.
95

What about `CNc1cc(Oc2cc(C(=O)Nc3cc(N4CCN(C)CC4)cc(C(F)(F)F)c3)ccc2C)ncn1` ?
95

And then `CCn1c(=O)c(-c2ccc(-c3cncs3)cc2Cl)cc2cnc(Nc3ccc(N4CCN(C)CC4)cc3)nc21` , what is it?
92

Same question for `Cl.O=c1c2cccn2c2ccccc2n1CCCN1CCC(c2ccc(Cl)cc2)CC1` please.
94

How about `CCN1CCN(Cc2ccc(Nc3ncc(F)c(-c4cc(F)c5nc(C)n(C(C)C)c5c4)n3)nc2)CC1.CS(=O)(=O)O` ?
91

Now consider `O=C1NC(=O)C(c2cnc3ccccn23)=C1c1cn2c3c(cc(F)cc13)CN(C(=O)N1CCCCC1)CC2` .
92

Okay, and `O=C(Cc1ccc(-c2ccc(OCCN3CCOCC3)cc2)cn1)NCc1ccccc1` ?
88

Next: CN1C2CCC1CC(OC(c1ccc(F)cc1)c1ccc(F)cc1)C2.Cl (centres undefined)
97

Same read-out for `O=C(Nc1ccc(-n2nc(-c3cccnc3)cc2C(F)(F)F)cn1)c1ccc(-c2ccccc2)c(F)c1` ?
96

// same read-out, input: `Cc1cn(-c2cc(NC(=O)c3ccc(C)c(Nc4nccc(-c5cccnc5)n4)c3)cc(C(F)(F)F)c2)cn1`
94

Repeat with `Cc1cc(C)c(S(=O)(=O)N(Cc2ccc(-c3cccc(S(C)(=O)=O)c3)cc2)Cc2ccc(C(F)(F)F)o2)c(C)c1`
97

Would you mind doing `C=C1/C(=C\C=C2/CCC[C@]3(C)[C@@H]([C@H](C)/C=C/[C@H](C)C(C)C)CC[C@@H]23)C[C@@H](O)C[C@@H]1O` as well?
98

What would you report for CN(C)C(=O)C(CCN1CCC(O)(c2ccc(Cl)cc2)CC1)(c1ccccc1)c1ccccc1.Cl [LOPERAMIDE HYDROCHLORIDE] ?
96

Thanks! And `Cc1ccc(C(=O)Nc2cccc(C(F)(F)F)c2)cc1Nc1nc(-c2cccnc2)nc2c1cnn2C` ?
89

Would you mind doing `O=C1N/C(=N/c2ccccc2F)S/C1=C\c1ccc(C(=O)O)cc1` as well?
94

What about `O=C(Nc1ccc(-c2ccnc(Nc3ccc(N4CCOCC4)cc3)n2)cc1)[C@@H]1CCCN1` ?
94

// query: `Cl.Oc1ccc2c3c1O[C@H]1c4[nH]c5c(c4C[C@@]4(O)[C@@H](C2)N(CC2CC2)CC[C@]314)C[C@@]1(O)[C@H]2Cc3ccc(O)c4c3[C@@]1(CCN2CC1CC1)[C@H]5O4`
95

// same read-out, input: `O=C(Nc1ccc(Cl)cc1)Nc1cccc(-c2cccc(N3CCCC3)n2)c1`
94

Now give it for `S=C(NCCCc1c[nH]cn1)NCCCN(Cc1ccc(Cl)c(Cl)c1)c1ccc(Br)cn1` too.
86

* * *

Exercise: state measured Population Mitotic Cells (%) for each of the molecules provided.
# System: Fibroblast
# assay method text: Multiplex assay against human fibroblast
# Format: toxicity, cell-based
# cond: 48 h, 10 µM, compound concentration 10 uM, replicate 2
A number alone suffices; assume %.

Name the recorded Population Mitotic Cells (%) for C=C1/C(=C\C=C2/CCC[C@]3(C)[C@@H]([C@H](C)/C=C/[C@H](C)C(C)C)CC[C@@H]23)C[C@@H](O)C[C@@H]1O [DOXERCALCIFEROL] .
0

// same read-out, input: `Cl.O=c1c2cccn2c2ccccc2n1CCCN1CCC(c2ccc(Cl)cc2)CC1`
44

Thanks! And CN1CCC(=C2c3ccccc3CC(=O)c3sccc32)CC1.O=C(O)/C=C/C(=O)O [KETOTIFEN FUMARATE] ?
100

Try the molecule `CCOc1cc(C(=O)N2CCC(N3CCN(C)CC3)CC2)ccc1Nc1ncc2c(n1)N(C1CCCC1)c1ccccc1C(=O)N2C`
6

Please give the result for `CCc1cccc(CC)c1NC(=O)c1nn(C)c2c1CCc1cnc(Nc3ccc(C(=O)NC4CCN(C)CC4)cc3OC(F)(F)F)nc1-2` too.
75

Can you check O=C(Cc1ccc(-c2ccc(OCCN3CCOCC3)cc2)cn1)NCc1ccccc1 [TIRBANIBULIN] next?
33

Can you check `CCn1c(=O)c(-c2ccc(-c3cncs3)cc2Cl)cc2cnc(Nc3ccc(N4CCN(C)CC4)cc3)nc21` next?
0

* * *

Record form. Attribute: Population Mitochondria Different-Phenotype (%). Fill in for each entry.
# Tested on: HEK-293T
# assay method text: Multiplex assay against HEK293T
# Assay type: toxicity, cell-based
# cond: human, 12 h, 1 µM, compound concentration 1 uM, replicate 1
Please state the figure in %; there is no need to write the unit.

Name the reported Population Mitochondria Different-Phenotype (%) value associated with the molecule `CCCS(=O)(=O)Nc1ccc(F)c(C(=O)c2c[nH]c3ncc(Cl)cc23)c1F`
4

Now the same for `S=C(NCCCc1c[nH]cn1)NCCCN(Cc1ccc(Cl)c(Cl)c1)c1ccc(Br)cn1`
83

Please give the result for `C=C1/C(=C\C=C2/CCC[C@]3(C)[C@@H]([C@H](C)/C=C/[C@H](C)C(C)C)CC[C@@H]23)C[C@@H](O)C[C@@H]1O` too.
78

Same lookup for `Cc1ccc(C(=O)Nc2cccc(C(F)(F)F)c2)cc1Nc1nc(-c2cccnc2)nc2c1cnn2C` , please.
94

Now this one: `CCCn1c(=O)c2[nH]c(-c3cnn(Cc4cccc(C(F)(F)F)c4)c3)nc2n(CC)c1=O`
83

Moving on to `Cn1nc(C(F)(F)F)cc1-c1cnc(N2CCc3cc(S(=O)(=O)Nc4c(F)cc(Cl)cc4F)cc(N4CCCC4=O)c32)nc1`
9

Note, next up: `CCc1cccc(CC)c1NC(=O)c1nn(C)c2c1CCc1cnc(Nc3ccc(C(=O)NC4CCN(C)CC4)cc3OC(F)(F)F)nc1-2`
93

* * *

Please go through the items and note down their Population Pyknosed Nuclei (%).
# Tested on: U2OS
# assay method text: Multiplex assay against U2OS
# Assay type: toxicity, cell-based
# cond: human, 48 h, 1 µM, compound concentration 1 uM, replicate 1
Quick reminder: number only, in %, skip the unit.

Tell me the measured Population Pyknosed Nuclei (%) of `CNc1cc(Oc2cc(C(=O)Nc3cc(N4CCN(C)CC4)cc(C(F)(F)F)c3)ccc2C)ncn1` , please.
18

Also `Cl.Oc1ccc2c3c1O[C@H]1c4[nH]c5c(c4C[C@@]4(O)[C@@H](C2)N(CC2CC2)CC[C@]314)C[C@@]1(O)[C@H]2Cc3ccc(O)c4c3[C@@]1(CCN2CC1CC1)[C@H]5O4` , if possible.
8

Follow-up item: CN(C)C(=O)C(CCN1CCC(O)(c2ccc(Cl)cc2)CC1)(c1ccccc1)c1ccccc1.Cl [LOPERAMIDE HYDROCHLORIDE]
15

And then `CCCS(=O)(=O)c1nc(NC2CC2)cc(-c2ccc3c(ccn3C3CC(C)(C)NC(C)(C)C3)c2)n1` , what is it?
14

Here is the next compound: `O=C1N/C(=N/c2ccccc2F)S/C1=C\c1ccc(C(=O)O)cc1`
6

Now the same for `CCCn1c(=O)c2[nH]c(-c3cnn(Cc4cccc(C(F)(F)F)c4)c3)nc2n(CC)c1=O`
9

Please give the result for `S=C(NCCCc1c[nH]cn1)NCCCN(Cc1ccc(Cl)c(Cl)c1)c1ccc(Br)cn1` too.
30

Would you kindly repeat that for `O=C(Cc1ccc(-c2ccc(OCCN3CCOCC3)cc2)cn1)NCc1ccccc1` ?
35

# repeat for `O=C(Nc1ccc(-n2nc(-c3cccnc3)cc2C(F)(F)F)cn1)c1ccc(-c2ccccc2)c(F)c1`
7

Also check CN1CCC(=C2c3ccccc3CC(=O)c3sccc32)CC1.O=C(O)/C=C/C(=O)O [KETOTIFEN FUMARATE]
8

Next compound: `CCc1cccc(CC)c1NC(=O)c1nn(C)c2c1CCc1cnc(Nc3ccc(C(=O)NC4CCN(C)CC4)cc3OC(F)(F)F)nc1-2`
25

Continue with `O=C1NC(=O)C(c2cnc3ccccn23)=C1c1cn2c3c(cc(F)cc13)CN(C(=O)N1CCCCC1)CC2`
21

Now the compound `CCn1c(=O)c(-c2ccc(-c3cncs3)cc2Cl)cc2cnc(Nc3ccc(N4CCN(C)CC4)cc3)nc21`
8

And what about the compound `Cc1cn(-c2cc(NC(=O)c3ccc(C)c(Nc4nccc(-c5cccnc5)n4)c3)cc(C(F)(F)F)c2)cn1` ?
17

Param item: `CCN1CCN(Cc2ccc(Nc3ncc(F)c(-c4cc(F)c5nc(C)n(C(C)C)c5c4)n3)nc2)CC1.CS(=O)(=O)O`
21
